From: patent US8835377B2

Assay Summary: Pharmacokinetics after oral capsules (sCT plus Dmt-DALDA with citric acid and lauroyl carnitine), non-enteric coated or enteric coated, in fasted beagle dogs (plasma; ELISA for sCT, HPLC-MS for Dmt-DALDA)
Type: in vivo
Assay Conditions: beagle, dog, plasma, oral, Non-Enteric Capsule, Dog 2

{"Smiles Repr": "Cc1cc(O)cc(C)c1C[C@H](N)C(=O)N[C@H](CCCNC(=N)N)C(=O)N[C@@H](Cc1ccccc1)C(=O)N[C@@H](CCCCN)C(N)=O", "Unit String": "min", "Tmax": 30}

====

Assay Summary: Pharmacokinetics after oral capsules (sCT plus Dmt-DALDA with citric acid and lauroyl carnitine), non-enteric coated or enteric coated, in fasted beagle dogs (plasma; ELISA for sCT, HPLC-MS for Dmt-DALDA)
Format: in vivo
Assay Conditions: beagle, dog, plasma, oral, Enteric Capsule, Dog 4; normalized to a 1 mg dose
Measure Name: Cmax (ng/mL)

{"Smiles Repr": "Cc1cc(O)cc(C)c1C[C@H](N)C(=O)N[C@H](CCCNC(=N)N)C(=O)N[C@@H](Cc1ccccc1)C(=O)N[C@@H](CCCCN)C(N)=O", "Recorded Result": 12.1}
